Tested on: MDCK
TEST: Minimum cytotoxic concentration required to cause a microscopically detectable alteration of normal cell morphology in madin-Darby canine kidney cells (MDCK)
Assay type: functional, Canis lupus familiaris
PROPERTY_NAME: log10 of MCC50 (log10 of the value in µM)
Values reflect log10 of reported MCC50 (µM).

INSERT INTO measurements (molecule, meas_value) VALUES
  ('CN(C)CCN1CCC(C2C3CC4CC(C3)CC2C4)C1 (configuration not stated)', 1.90);

Per the record, CCN(CC)CCN1CCC(C2C3CC4CC(C3)CC2C4)C1=O (configuration not stated) has log10 of MCC50 of 1.96

Per the record, CN(C)CCN1CCC(C2C3CC4CC(C3)CC2C4)C1=O (configuration not stated) has log10 of MCC50 of 2.09

Per the record, CCN1CCC(C2C3CC4CC(C3)CC2C4)C1 (configuration not stated) has log10 of MCC50 of 2.17

Per the record, CCN(CC)CCN1CCC(C2C3CC4CC(C3)CC2C4)C1 (configuration not stated) has log10 of MCC50 of 1.87

Per the record, C1CC(C2C3CC4CC(C3)CC2C4)CN1 (configuration not stated) has log10 of MCC50 of 2.09

Per the record, CCCCN1CCC(C2C3CC4CC(C3)CC2C4)C1 (configuration not stated) has log10 of MCC50 of 2.13

Per the record, CCCN1CCC(C2C3CC4CC(C3)CC2C4)C1 (configuration not stated) has log10 of MCC50 of 2.15

Per the record, C1CCN(CCN2CCC(C3C4CC5CC(C4)CC3C5)C2)CC1 (configuration not stated) has log10 of MCC50 of 1.16

* * *

System: MDCK
TEST: Minimum cytotoxic concentration required to cause a microscopically detectable alteration of normal cell morphology in madin-Darby canine kidney cells (MDCK)
Assay type: functional, Canis lupus familiaris
PROPERTY_NAME: MCC50

Answered examples (2):
INSERT INTO results (molecule, target_or_test_system, property_name, meas_value) VALUES
  ('NC(=O)c1ncn([C@@H]2O[C@H](CO)[C@@H](O)[C@H]2O)n1', 'MDCK', 'MCC50', '>1024.6 µM'),
  ('NC12CC3CC(CC(C3)C1)C2', 'MDCK', 'MCC50', '>533.3 µM');

Now, please, on to the next molecule.
Per the record, CN1CCC(C2C3CC4CC(C3)CC2C4)C1 (stereo not drawn) has MCC50 of >156.4 µM
